Origin of measurements: the supplement of paper PMC10567573

B1: NECAB1 (parent)
chain: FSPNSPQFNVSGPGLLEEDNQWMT

- Variants of: B1
- experimental protocol: protein stability index of a GFP-peptide fusion (GPS, HEK-293T) (PSI 1-6); higher = more stable;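 note: lentivirally expressed fusions sorted by FACS into six bins by GFP to DsRed ratio, PSI derived from sequencing read proportions per bin multiplied by bin number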
- condition label: c terminus: a fixed tail appended
So basically: protein stability index at 3 or higher? That is Yes. Lower than 3? That is No.

# variant string, label
data = [
    ("E18Q", "No"),
    ("S11M", "No"),
    ("S2A", "No"),
    ("P13C", "No"),
    ("G14Y", "No"),
    ("N9C", "No"),
    ("S2P", "No"),
    ("D19R", "No"),
    ("N4G", "No"),
    ("N4S", "No"),
    ("N20M", "No"),
    ("F8R", "Yes"),
    ("L16Q", "Yes"),
    ("W22E", "Yes"),
    ("P13G", "No"),
    ("V10L", "No"),
    ("N20V", "No"),
    ("W22T", "Yes"),
    ("F1V", "Yes"),
]
